Please respond with reported pIC50 for every item in the list.
test.target: PDE1A (Homo sapiens (Human))
test.protocol: biochemical
Format: biochemical
assay.context: 15 nM tritium labelled cAMP, 1 hr at room temperature, SPA beads
Expect pIC50 as a plain number equal to -log10 of the molar concentration.

Form: compound = CCOc1ncccc1-c1cc(NCc2ncccc2OC)c2c(n1)c(C)nn2C(C)C [Example 118] ; pIC50 = 7.89

Form: compound = CCOc1ncccc1-c1cc(NCc2cccnc2C)c2c(n1)c(C)nn2C(C)C [Example 84] ; pIC50 = 7.72

Form: compound = CCCOc1ncccc1-c1cc(NCc2cn[nH]c2)c2c(n1)c(C)nn2C(C)C [Example 196] ; pIC50 = 7.74

Form: compound = CCCOc1ncccc1-c1cc(NCc2ncn(C)n2)c2c(n1)c(C)nn2C(C)CC (single isomer, unassigned) [Example 134] ; pIC50 = 9.02

Form: compound = CCN(C)c1ncccc1-c1cc(NCc2ccc(OC)cc2)c2c(n1)c(C)nn2C(C)C [Example 198] ; pIC50 = 5.96

Form: compound = CCCOc1ncccc1-c1cc(NCc2cnn(C)c2)c2c(n1)c(C)nn2C(C)C [Example 94] ; pIC50 = 8.85

Form: compound = Cc1nn(C(C)C)c2c(NCc3cnn(C)c3)cc(N3CCOC3=O)nc12 [Example 151] ; pIC50 = 8.00

Form: compound = CCOc1ncccc1-c1cc(NC(C)c2cnn(C)c2)c2c(cnn2C)n1 (racemic) [Example 15] ; pIC50 = 6.09

Form: compound = CCOc1ncccc1-c1cc(NCc2csc(C)n2)c2c(n1)c(C)nn2C1COC1 [Example 113] ; pIC50 = 6.96

Form: compound = CCOc1ncccc1-c1cc(NCc2cnn(C)c2)c2c(n1)c(CF)nn2C(C)C [Example 199] ; pIC50 = 8.13

Form: compound = CCOc1ncccc1-c1cc(NCc2cc(C)on2)c2c(n1)c(C)nn2C(C)C [Example 3] ; pIC50 = 9.10

Form: compound = Cc1nn(C(C)C)c2c(NCc3cnn(C)c3)cc(-c3cnnn3C)nc12 [Example 169] ; pIC50 = 6.21

---

Please respond with reported IC50 for every item in the list.
test.target: PDE1B (Homo sapiens (Human))
test.protocol: PDE1 inhibition assay (PDE1B)
Format: biochemical
assay.context: PDE1B, IC50 (nM), 15 nM tritium labelled cAMP, 1 hr at room temperature, SPA beads
Your answer is read as nM, so omit the unit and give the number.

Form: compound = CCOc1ncccc1-c1cc(NCc2cnc(C)o2)c2c(n1)c(C)nn2C(C)CC (single isomer, unassigned) ; IC50 = 1.3

Form: compound = CCOc1ncccc1-c1cc(SCc2cnn(C)c2)c2c(n1)c(C)nn2C(C)C ; IC50 = 1.6

Form: compound = CCOc1ncccc1-c1cc(NCc2nc[nH]n2)c2c(n1)c(C)nn2C(C)CC (single isomer, unassigned) ; IC50 = 1.1

Form: compound = CCOc1ncccc1-c1cc(NCc2ncn(C)n2)c2c(cnn2C(C)CC)n1 (single isomer, unassigned) [Example 141] ; IC50 = 2.2

Form: compound = CCOc1ncccc1-c1cc(NCc2c[nH]cn2)c2c(n1)c(C)nn2C(C)CC (single isomer, unassigned) ; IC50 = 0.86

Form: compound = CCCOc1ncccc1-c1cc(NCc2ncn(C)n2)c2c(n1)c(C)nn2C(C)CC (single isomer, unassigned) ; IC50 = 0.12

Form: compound = CCOc1ncccc1-c1cc(NCc2cn(C)cn2)c2c(n1)c(C)nn2C(C)CC (single isomer, unassigned) ; IC50 = 0.045

Form: compound = CCOc1ncccc1-c1cc(NCc2cncc(OC)c2)c2c(n1)c(C)nn2C(C)CC (single isomer, unassigned; enantiomer 2) ; IC50 = 0.32

Form: compound = CCOc1ncccc1-c1cc(NCc2ccn(C)n2)c2c(n1)c(C)nn2C(C)CC (single isomer, unassigned) ; IC50 = 0.64

Form: compound = CCOc1ncccc1-c1cc(NC(C)c2cnn(C)c2)c2c(cnn2C)n1 (racemic) ; IC50 = 200

Form: compound = CCOc1ncccc1-c1cc(NCc2noc(C)n2)c2c(n1)c(C)nn2C(C)CC (single isomer, unassigned) ; IC50 = 0.26

Form: compound = CCOc1ncccc1-c1cc(NCc2nnc(C)o2)c2c(cnn2C(C)CC)n1 (single isomer, unassigned) ; IC50 = 6.8

---

Please respond with reported IC50 for every item in the list.
test.target: PDE1B (Homo sapiens (Human), UniProt Q01064)
Sequence (Q01064 whole entry): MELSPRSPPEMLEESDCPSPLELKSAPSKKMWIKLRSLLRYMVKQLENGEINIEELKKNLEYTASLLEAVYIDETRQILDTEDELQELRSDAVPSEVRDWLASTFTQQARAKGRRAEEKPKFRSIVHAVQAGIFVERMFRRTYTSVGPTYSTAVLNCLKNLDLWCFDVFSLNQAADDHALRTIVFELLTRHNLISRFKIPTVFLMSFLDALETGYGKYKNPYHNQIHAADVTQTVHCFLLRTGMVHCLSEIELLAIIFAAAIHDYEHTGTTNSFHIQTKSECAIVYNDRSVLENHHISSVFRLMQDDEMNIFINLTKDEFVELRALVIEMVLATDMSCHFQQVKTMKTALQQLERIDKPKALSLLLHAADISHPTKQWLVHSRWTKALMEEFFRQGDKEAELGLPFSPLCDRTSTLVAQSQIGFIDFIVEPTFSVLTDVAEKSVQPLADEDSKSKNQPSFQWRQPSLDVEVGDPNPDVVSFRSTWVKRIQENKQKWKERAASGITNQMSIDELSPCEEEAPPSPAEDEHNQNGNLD
test.protocol: PDE1 inhibition assay (PDE1B)
Assay type: biochemical
assay.context: 15 nM tritium labelled cAMP, 1 hr at room temperature, SPA beads; read-out: PDE1B, IC50
Your answer is read as nM, so omit the unit and give the number.

Form: compound = CCOc1ncccc1-c1cc(NCc2ccc(OC)nc2)c2c(n1)c(C)nn2C(C)C [Example 111] ; IC50 = 1.4

Form: compound = CCOc1ncccc1-c1cc(NCc2ccnc(C)n2)c2c(n1)c(C)nn2C(C)C [Example 105] ; IC50 = 12

Form: compound = CCCn1ncc2nc(-c3cccnc3OCC)cc(NCc3cnn(C)c3)c21 [Example 13] ; IC50 = 15

Form: compound = CCOc1ncccc1-c1cc(NCc2ccn(C)n2)c2c(n1)c(C)nn2C(C)C [Example 60] ; IC50 = 0.59

Form: compound = CCOc1ncccc1-c1cc(NCc2cn(C)c(C)n2)c2c(n1)c(C)nn2C(C)C [Example 51, 2,2,2-trifluoroacetate] ; IC50 = 9.1

Form: compound = CCOc1ncccc1-c1cc(NCc2cccc(OC)n2)c2c(n1)c(C)nn2C(C)C [Example 102] ; IC50 = 0.73

Form: compound = CCOc1ncccc1CNc1cc(-c2cccnc2OCC)nc2c(C)nn(C(C)C)c12 [Example 191] ; IC50 = 10

Form: compound = Cc1nn(C(C)C)c2c(NCc3cnn(C)c3)cc(-c3ccccc3)nc12 [Example 64] ; IC50 = 12

Form: compound = CCOc1ncccc1-c1cc(NCc2ccc(OC)cn2)c2c(n1)c(C)nn2C(C)C [Example 112] ; IC50 = 12

Form: compound = CCOc1ncccc1-c1cc(NCc2cnn(C)c2)c2c(n1)c(CF)nn2C(C)C [Example 199] ; IC50 = 0.75

Form: compound = CCOc1ncccc1-c1cc(NCc2cnn(C)n2)c2c(n1)c(C)nn2C(C)C [Example 5] ; IC50 = 1.8

Form: compound = CCOc1ncccc1-c1cc(CNc2cncc(OC)c2)c2c(n1)c(C)nn2C(C)C [Example 157] ; IC50 = 14

Form: compound = CCOc1ncccc1-c1cc(NCc2cccnc2C)c2c(n1)c(C)nn2C(C)C [Example 84] ; IC50 = 1.8

---

test.target: PDE1A (Homo sapiens (Human), UniProt P54750)
Sequence (P54750 whole entry): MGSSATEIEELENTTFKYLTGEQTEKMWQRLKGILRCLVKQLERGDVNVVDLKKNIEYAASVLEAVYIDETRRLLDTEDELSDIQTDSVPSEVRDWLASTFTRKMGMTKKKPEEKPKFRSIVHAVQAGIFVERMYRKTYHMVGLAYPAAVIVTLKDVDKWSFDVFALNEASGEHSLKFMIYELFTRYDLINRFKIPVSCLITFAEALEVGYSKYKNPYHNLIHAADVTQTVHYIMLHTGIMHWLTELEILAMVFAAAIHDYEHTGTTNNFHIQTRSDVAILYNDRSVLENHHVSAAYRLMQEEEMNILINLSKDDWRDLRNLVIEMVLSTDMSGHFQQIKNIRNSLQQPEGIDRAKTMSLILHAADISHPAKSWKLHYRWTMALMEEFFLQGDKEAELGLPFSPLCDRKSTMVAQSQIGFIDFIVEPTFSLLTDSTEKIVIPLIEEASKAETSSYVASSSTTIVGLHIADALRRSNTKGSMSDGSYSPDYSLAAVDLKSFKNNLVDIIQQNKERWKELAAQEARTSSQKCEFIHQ
test.protocol: biochemical
Assay type: biochemical
assay.context: 15 nM tritium labelled cAMP, 1 hr at room temperature, SPA beads
observation.type: pIC50
Expect pIC50 as a plain number equal to -log10 of the molar concentration.

Form: compound = CCOc1ncccc1-c1cc(NCc2ncn(C)n2)c2c(n1)c(C)nn2C1COC1 [Example 163] ; pIC50 = 6.92

Form: compound = CCOc1ncccc1-c1cc(NCc2ccccc2OC)c2c(n1)c(C)nn2C(C)C [Example 88] ; pIC50 = 6.96

Form: compound = CCOc1ncccc1-c1cc(NCc2cc[nH]n2)c2c(cnn2C(C)C)n1 [Example 57] ; pIC50 = 7.01

---

test.target: UniProt Q01064
test.protocol: PDE1 inhibition assay (PDE1B)
Assay type: biochemical
assay.context: 15 nM tritium labelled cAMP, 1 hr at room temperature, SPA beads; read-out: PDE1B, IC50
observation.type: IC50 (nM)
Your answer is read as nM, so omit the unit and give the number.

Item: CCOc1ncccc1-c1cc(NCc2cn(C)nn2)c2c(n1)c(C)nn2C(C)C | System: UniProt Q01064 | IC50: 0.22

Item: COc1ncccc1CNc1cc(-c2ccc[nH]c2=O)nc2c(C)nn(C(C)C)c12 | System: UniProt Q01064 | IC50: 47

Item: Cc1nn(C)cc1-c1cc(NCc2cnn(C)c2)c2c(n1)c(C)nn2C(C)C | System: UniProt Q01064 | IC50: 120

Item: COc1ncccc1CNc1cc(-c2cccnc2OC(F)F)nc2c(C)nn(C(C)C)c12 | System: UniProt Q01064 | IC50: 7.8

Item: CCOc1ncccc1-c1cc(NCc2ccccc2F)c2c(n1)c(C)nn2C(C)C | System: UniProt Q01064 | IC50: 1.5

Item: CCOc1ncccc1-c1cc(NCc2cncnc2OC)c2c(n1)c(C)nn2C(C)C | System: UniProt Q01064 | IC50: 7.9

Item: CCOc1ncccc1-c1cc(NCc2cccnc2)c2c(n1)c(C)nn2C(C)C | System: UniProt Q01064 | IC50: 2
